I'd appreciate it if you could supply T/C values for the items below.
Tested on: BDF1 mice, P388 leukemia ip, median survival T/C
Experiment: NCI In Vivo Anticancer Drug Screen. Data for tumor model P388 Leukemia (intraperitoneal) in B6D2F1 (BDF1) mice
Settings: endpoint: median survival time; dose: 200.0 mg/kg/injection; schedule: Q01DX001 (ip); vehicle: saline; higher = longer survival
Toxic doses and inconclusive results are not listed.

Examples with answers:
COMPOUND | T/C
O=c1cc(Cl)c(=O)[nH][nH]1 | 98 % of control
BrC1C2CC(c3ccccc32)C1Br (stereo unspecified) | 104 % of control

Go through the items and report each one's T/C.
1. O=S(=O)(O)c1ccc(CCCCCCl)cc1
2. CCOC(OC(C)=O)OC(C)=O
3. O=C1c2ccccc2C(=O)N1CNc1cccc(NCN2C(=O)c3ccccc3C2=O)c1
4. O

90 % of control
110 % of control
100 % of control
90 % of control
